tested on: K4 kissing-loop RNA reporter; assay: apparent KD of K4 kissing-loop reporter; higher = weaker reporter binding; settings: Eterna round: R107; input ligand: theophylline 20 uM;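 note: bound reporter read as fluorescence of individual clusters on recovered sequencing chips by microscopy, with normalized cluster intensities fitted with a binding model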

# primarySequence, apparent KD of K4 kissing-loop reporter / nM
rows = [
    ("UUUGGUUUCUCGGCCGCCACUCGUUGUCUAUCGGCUUCAGGGAUAUAGUGAUGUUAUGUAUAGAAGAGGACCGGGAGAAGGUUCC [ExTryptoB.Dy]", 237),
    ("UGAUAGGACAGAAGGAGCGGAGCUGGUCAAAGACCAGCAAUACGUUGAAAAGGAGUGAUGUUCCAGGUAGGUCGCUGUCCUAUCU [ArgBX 27 #SwitchBubble #StaticStem]", 133),
    ("UGUGUUGUUGUGAUGUUUGGUGUUGUAGGGCAGGAUAUCGUAGAGGCGAGAAGGGCUUGUGGGCGGUAUGAGUGAUGUUUGUAGG [cfiuxmullin]", 143),
    ("AUAGUGAGCUCGGCCGCCACUCCACUAUGUCAACAGUAGCUCUGUCAUAACCAGUGAUGUUGGUUGAGGACCGGGAGUUAAGACU [theeternabot_exclusion_KL_Trp_B_34]", 195),
    ("GUUACGCAUGGAAGGAGCGCGAAUUUAAUUAGUGAGUGAUGUUCACAUAAAAUGUAUAAUACGCAGGUAGGUCGCCAUGUGUAAC [whbob_Ex_Arginine_B_2th163]", 85.7),
    ("UUGUAUACUUUUGUGUGCGAUGUGUAGCCGCGAGGACCGGUACGGCCGCCACUCGCUGAGAGUGAUGUUCUCUGGGCUAUAUAUC [Skye_SS_TA3]", 794),
    ("UGGCGACUGCCAGUGAUGUUGGCCGUCGUACGAGGACCGGUACGGCCGCCACUCGUCCUGGUUUAGGCUCCGCCUUCACAUCAGG [Beterire]", 784),
    ("AGUACAAUGGCGGCCGCCACUCAACGCAGAUCAAAGAUCUGCGAUCACUCAGUGAUGUUGAGUGAGAGGACCGGGCCUUUGUACA [Omei KL Tryp B SS B v6]", 311),
    ("CCAUUCUUUUACGAUACCAGUUUAAUAUAUUUAUUCAAAACCCUUGCCGAGUGAUGUUCGGACCCUUGGCAGCGUUUGCGAGAGG [ttedstkmullin]", 434),
    ("GAGAUGCACCAGUCUUAACGUGACUUAUCCCGAGGACCGGUACGGCCGCCACUCGCGUACUACUAGUGAUGUUGGUCAGUAUGAG [theeternabot_sameState_KL_Trp_A_26]", 223),
    ("GCUAAGGAGUGAUGUUCCAAGUGAUGUUAACGAGGACCGGUACGGCCGCCACUCGAUACGGCCGGAAAGUAAGAUAAACUACAGU [Same State - Tryptophan A (Freestyle 4)]", 75.8),
    ("AAAGAGUCACUCGAAGCCAUCGAAGAUGGGCGAGGACCGGUACGGCCGCCACUCGGAGUGAUGUUCCGAAGACUGUAAAAUAAAA [MatMod 11 - Jieux - Exclusion - Tryptophan A]", 362),
    ("CCUAUCUCUUACGAUACCAGUCAAUGAUAUUUUAUCAAUGCCCUCACCGAGUGAUGUUCGGACCCUUGGCAGCGUAUGGGAUAGG [kjnjmullin]", 175),
    ("UGAUACCAGACUGAUACCAGCCAGUGAUGUUGGCAAUAACCAAGGCGAGUCAAAGACUCGGGCCCUUGGCAGCAGUCUGGUAUCU [TheoBX 6 #SwitchBubble #StaticStem]", 143),
]
